Cited source for all entries: ChEMBL document CHEMBL5303304

- Test system: Fibroblast
- protocol_details: Incucyte cell viability with human fibroblast; further: unitless GR value; below 1 slowed growth and below 0 cell loss
- Format: toxicity, cell-based
- run_conditions: 18 h, 10 µM, compound concentration 10 uM, replicate number 2
measure_name: Growth Rate

molecule=Cc1cc(Cn2c(N3CC4(CNC4)C3)nc3cc(Cl)cc(N4CCN(C)CC4)c32)cc(C)c1F reported_result=0.16
molecule="CC(C)(C[C@H]1CN(S(=O)(=O)c2cccc(C(F)(F)F)c2)c2cc(-c3cc(F)cc(OC(F)F)c3)ccc2O1)C(=O)O [CINTIRORGON]" reported_result=0.81
molecule=C[C@@H](CO)CCC[C@@H](C)[C@H]1CC[C@H]2[C@@H]3CC=C4C[C@@H](O)CC[C@]4(C)[C@H]3CC[C@]12C reported_result=0.27
molecule=Cc1cccc(CC(=O)N2CCc3c2ccc(-c2cn(C)c4ncnc(N)c24)c3F)n1 reported_result=0.69

* * *

- Test system: Fibroblast
- protocol_details: Incucyte cell viability with human fibroblast; further: unitless GR value; below 1 slowed growth and below 0 cell loss
- Assay type: toxicity, cell-based
- run_conditions: 12 h, 10 µM, compound concentration 10 uM, replicate number 2
Friendly reminder: Growth Rate below 0.4 is yes, at or above is no.

molecule=CCN1CCN(Cc2ccc(C(=O)Nc3ccc(C)c(Oc4ccc5c(c4)CC(=O)N5)c3)cc2C(F)(F)F)CC1.Cl.Cl target=Fibroblast assigned_class=yes
molecule=CCN(CC)CCO[C@H]1CC[C@@]2(C)C(=CC[C@@H]3[C@@H]2CC[C@]2(C)C(=O)CC[C@@H]32)C1.Cl target=Fibroblast assigned_class=yes
molecule="O=C(Cc1ccccc1)Nc1nnc(N2CC[C@@H]3[C@H]2CN3c2cccnn2)s1 [A-426]" target=Fibroblast assigned_class=no
molecule=CC(C)c1cc(Br)c(NC(=O)Nc2cccnc2)c(Br)c1 target=Fibroblast assigned_class=no
molecule=COc1cc(C(=O)NCCOCCOCCOCC(=O)N[C@H](C(=O)N2C[C@H](O)C[C@H]2C(=O)NCc2ccc(-c3scnc3C)cc2)C(C)(C)C)ccc1Nc1ncc(C(F)(F)F)c(Oc2cccc3c2C(=O)CC3)n1 target=Fibroblast assigned_class=no
molecule=CC(C)c1nc2c(c3c1[C@@H](c1ccc(C(F)(F)F)cc1)OC31CCOCC1)[C@@H](O)CC(C)(C)C2.Cl target=Fibroblast assigned_class=no
molecule=Cc1cnc(Nc2ccc(C(=O)N3CCN(C)CC3)cc2)nc1N[C@@H]1CCC[C@@H]1C(N)=O target=Fibroblast assigned_class=yes
molecule="C[S+](C)[O-] [DIMETHYL SULFOXIDE]" target=Fibroblast assigned_class=no

* * *

- Test system: U2OS
- protocol_details: Incucyte cell viability with U2OS; further: unitless GR value; below 1 slowed growth and below 0 cell loss
- Format: toxicity, cell-based
- run_conditions: human, 6 h, 10 µM, compound concentration 10 uM, replicate number 2
measure_name: Growth Rate

molecule=CN1CCC(F)(Cn2cnc(-c3ccc(F)cn3)c2-c2ccnc3[nH]ccc23)CC1 target=U2OS measure_name="Growth Rate" reported_result=0.77
molecule=O=C(O)CCCCN(CCc1cc(F)ccc1OCc1ccc(-c2ccc(C(F)(F)F)cc2)cc1)Cc1ccc(C(=O)O)cc1 target=U2OS measure_name="Growth Rate" reported_result=0.58
molecule=CSc1ccc(C(=O)/C=C/c2cc(C)c(OC(C)(C)C(=O)O)c(C)c2)cc1 target=U2OS measure_name="Growth Rate" reported_result=0.45
molecule=CC1(C)Oc2ncnc(N)c2N=C1c1ccc([C@H]2CC[C@H](CC(=O)O)CC2)cc1 target=U2OS measure_name="Growth Rate" reported_result=0.92
molecule=FC(F)(F)c1ccc(Nc2ncnc3cc(-c4ncccc4C(F)(F)F)ccc23)cc1 target=U2OS measure_name="Growth Rate" reported_result=0.82
molecule=CS(=O)(=O)NC(=O)CCC/C=C\C[C@H]1C(=O)C[C@@H](O)[C@@H]1/C=C/[C@@H](O)COc1ccccc1 target=U2OS measure_name="Growth Rate" reported_result=0.91
molecule=CCOC(=O)c1cnn(-c2ccc(NC(=O)C(Cl)=C(Cl)Cl)cc2)c1C(F)(F)F target=U2OS measure_name="Growth Rate" reported_result=0.04
molecule=O=C1NCCc2c(OCCCCN3CCCCC3)cccc21 target=U2OS measure_name="Growth Rate" reported_result=0.34
molecule=CN(C)C/C=C/C(=O)Nc1cc2c(Nc3ccc(F)c(Cl)c3)ncnc2cc1OC[C@@H]1CCCO1 target=U2OS measure_name="Growth Rate" reported_result=-0.14
molecule=C[C@H](CCC(=O)O)[C@H]1CC[C@H]2[C@@H]3CC[C@@H]4C[C@H](O)CC[C@]4(C)[C@H]3C[C@H](O)[C@]12C target=U2OS measure_name="Growth Rate" reported_result=0.82
molecule=CC1(C)C(=O)N([C@H]2CCc3c(O)cccc32)c2nc(Nc3cccc(CN4CCCC4)c3)ncc21 target=U2OS measure_name="Growth Rate" reported_result=-0.15
molecule=COCCN1CCN(CCn2ccc(Nc3ncc4c(n3)-c3c(nn(C)c3-c3ccccc3)C[C@H]4C)n2)CC1 target=U2OS measure_name="Growth Rate" reported_result=0.25
molecule="C[C@H](C[C@H](N)C(=O)O)C(=O)O [2S,4R-4-METHYLGLUTAMATE]" target=U2OS measure_name="Growth Rate" reported_result=0.65
molecule=Cc1c(-c2c(F)cc(C(N)=O)c3[nH]c4c(c23)CC[C@H](C(C)(C)O)C4)cccc1-n1c(=O)c2cccc(F)c2n(C)c1=O target=U2OS measure_name="Growth Rate" reported_result=0.48
molecule=CC1(C)C[C@@H]1C(=O)N/C(=C\CCCCSC[C@H](N)C(=O)O)C(=O)O target=U2OS measure_name="Growth Rate" reported_result=0.81
molecule=COC(=O)c1cc2c(cn1)[nH]c1ccccc12 target=U2OS measure_name="Growth Rate" reported_result=0.6
molecule=CSc1nc2c(c(=O)n(C)c(=O)n2C)n1C target=U2OS measure_name="Growth Rate" reported_result=0.49
molecule=Cn1cnc(Cn2ccc3ccc(CNCc4[nH]c5ccccc5c4[C@H]4NC(=O)c5ccc(O)cc54)cc32)c1 target=U2OS measure_name="Growth Rate" reported_result=0.3
molecule=Cc1ccc(NC(=O)c2ccc3cnccc3c2)cc1C(=O)Nc1cnc(Nc2cccc(NC3CCN(C(=O)/C=C/CN(C)C)CC3)c2)nc1 target=U2OS measure_name="Growth Rate" reported_result=0.51
molecule=O=C1NCc2ccc3c(-c4cccc(Cl)c4)c[nH]c3c21 target=U2OS measure_name="Growth Rate" reported_result=0.05
molecule=Cc1cc(-c2nncc3c(C(C)(C)C)c(OCc4ncnn4C)nn23)no1 target=U2OS measure_name="Growth Rate" reported_result=0.23
molecule=CCN(C)S(=O)(=O)Nc1cccc(-c2ccc3c(NC(=O)C4CC4)n[nH]c3c2)c1 target=U2OS measure_name="Growth Rate" reported_result=-0.06
molecule=CN(C)[C@H]1C[C@H](n2cnc(-c3ccc(F)cn3)c2-c2ccnc3[nH]ccc23)C1 target=U2OS measure_name="Growth Rate" reported_result=0.94
molecule=C[C@@H](NC(=O)Cc1ccc(C2CC2)cc1)c1ccc(OCC(F)(F)F)cn1 target=U2OS measure_name="Growth Rate" reported_result=0.67
molecule=Cc1cc(-c2cnc(N)c3c(-c4ccc5scnc5c4)csc23)n(C)n1 target=U2OS measure_name="Growth Rate" reported_result=0.91
molecule=CCC(=N\O)/C(C)=C/c1ccc(F)cc1 target=U2OS measure_name="Growth Rate" reported_result=0.16
molecule="CCC(C(=O)Nc1ccc(-c2cc3ccccc3s2)c(C(N)=O)c1)c1nccs1 (stereo not drawn)" target=U2OS measure_name="Growth Rate" reported_result=0.92
molecule=NC(=O)c1ccc2[nH]c(-c3ccc(Oc4ccc(Cl)cc4)cc3)nc2c1 target=U2OS measure_name="Growth Rate" reported_result=0.74
